test: Drug uptake in dog at 5 mg/kg, po measured at 24 hrs post dose by LC/MS method; type: ADME, organism-based, Canis lupus familiaris; conditions: in vivo, read-out: Drug uptake
property_measured: concentration at 24 h

Use these answered entries as a reference point.
CCc1ccc([C@@H]2Oc3cc(-c4cnc([C@@H]5CCCN5C(=O)[C@@H](NC(=O)OC)C(C)C)[nH]4)cc(F)c3-c3cc4cc(-c5cnc([C@@H]6CCCN6C(=O)[C@@H](NC(=O)OC)C(C)C)[nH]5)ccc4n32)s1 ... 172 nM
COC(=O)N[C@H](C(=O)N1CCC[C@H]1c1ncc(-c2cc(F)c3c(c2)OC(c2ccc(C4CC4)s2)n2c-3cc3cc(-c4cnc([C@@H]5CCCN5C(=O)[C@@H](NC(=O)OC)C(C)C)[nH]4)ccc32)[nH]1)C(C)C (some centres undefined) ... 134 nM
CCCc1ncc(C2Oc3cc(-c4cnc([C@@H]5CCCN5C(=O)[C@@H](NC(=O)OC)C(C)C)[nH]4)cc(F)c3-c3cc4cc(-c5cnc([C@@H]6CCCN6C(=O)[C@@H](NC(=O)OC)C(C)C)[nH]5)ccc4n32)s1 (some centres undefined) ... 76.7 nM

Consider the record given below.
Inquiry: I have this compound here, COC(=O)N[C@H](C(=O)N1CCC[C@H]1c1ncc(-c2cc(F)c3c(c2)O[C@@H](c2cnc(C4CC4)s2)n2c-3cc3cc(-c4cnc([C@@H]5CCCN5C(=O)[C@@H](NC(=O)OC)C(C)C)[nH]4)ccc32)[nH]1)C(C)C [RUZASVIR] , and I need its recorded concentration at 24 h.
Reply text: 43 nM

* * *

Reported log10 EC90 values are given for each entry in this list.
tested on: Nonstructural protein 5A (Hepatitis C virus), Q5L478 [Y93H]; assay: Inhibition of HCV genotype-1a NS5A Y93H mutant infected in human HuH7 cells by luciferase reporter gene assay; assay type: cell-based; details: Hepatitis C virus subtype 1a; Huh-7
Sequence (Q5L478 entry or part of it Y93H): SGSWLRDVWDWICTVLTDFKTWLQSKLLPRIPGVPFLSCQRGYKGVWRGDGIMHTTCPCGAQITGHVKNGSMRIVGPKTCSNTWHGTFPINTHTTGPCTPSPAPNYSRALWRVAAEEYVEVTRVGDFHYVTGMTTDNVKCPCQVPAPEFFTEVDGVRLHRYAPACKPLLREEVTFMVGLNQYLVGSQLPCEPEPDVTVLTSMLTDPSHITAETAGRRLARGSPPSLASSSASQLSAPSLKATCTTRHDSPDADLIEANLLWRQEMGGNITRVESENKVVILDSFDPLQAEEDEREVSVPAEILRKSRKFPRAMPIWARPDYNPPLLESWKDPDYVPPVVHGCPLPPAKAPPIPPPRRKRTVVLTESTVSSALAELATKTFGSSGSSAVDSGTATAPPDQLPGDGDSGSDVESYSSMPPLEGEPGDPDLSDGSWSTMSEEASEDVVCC
Heads up: the numbers are on a log10 scale; they represent EC90 in pM.

# count of solved cases: 4
COC(=O)N[C@H](C(=O)N1CCC[C@H]1c1ncc(-c2cc(F)c3c(c2)OC(c2ccc(C(F)(F)F)s2)n2c-3cc3cc(-c4cnc([C@@H]5CCCN5C(=O)[C@@H](NC(=O)OC)C(C)C)[nH]4)ccc32)[nH]1)C(C)C (some centres undefined) ... 2.49
COC(=O)N[C@H](C(=O)N1CCC[C@H]1c1ncc(-c2cc(F)c3c(c2)OC(c2cnc(C(C)C)s2)n2c-3cc3cc(-c4cnc([C@@H]5CCCN5C(=O)[C@@H](NC(=O)OC)C(C)C)[nH]4)ccc32)[nH]1)C(C)C (some centres undefined) ... 1.70
COC(=O)N[C@H](C(=O)N1CCC[C@H]1c1ncc(-c2cc(F)c3c(c2)OC(c2ccsc2)n2c-3cc3cc(-c4cnc([C@@H]5CCCN5C(=O)[C@@H](NC(=O)OC)C(C)C)[nH]4)ccc32)[nH]1)C(C)C (some centres undefined) ... 2.77
CCc1ccc([C@@H]2Oc3cc(-c4cnc([C@@H]5CCCN5C(=O)[C@@H](NC(=O)OC)C(C)C)[nH]4)ccc3-c3cc4cc(-c5cnc([C@@H]6CCCN6C(=O)[C@@H](NC(=O)OC)C(C)C)[nH]5)ccc4n32)s1 ... 3.53

Inquiry: Entry under review: COC(=O)N[C@H](C(=O)N1CCC[C@H]1c1ncc(-c2cc(F)c3c(c2)OC(c2ccc(C4CC4)s2)n2c-3cc3cc(-c4cnc([C@@H]5C[C@H]6C[C@H]6N5C(=O)[C@@H](NC(=O)OC)C(C)C)[nH]4)ccc32)[nH]1)C(C)C (some centres undefined) . Reported log10 EC90?
Reply text: 1.48

Inquiry: Returns the measured log10 EC90 for the input compound. Input: COC(=O)N[C@H](C(=O)N1CCC[C@H]1c1ncc(-c2cc(F)c3c(c2)OC(c2ccc(C4CC4(F)F)s2)n2c-3cc3cc(-c4cnc([C@@H]5CCCN5C(=O)[C@@H](NC(=O)OC)C(C)C)[nH]4)ccc32)[nH]1)C(C)C (some centres undefined)
Reply text: 1.92

Inquiry: Name the reported log10 EC90 value associated with the compound COC(=O)N[C@H](C(=O)N1CCC[C@H]1c1ncc(-c2cc(F)c3c(c2)OC(c2nc4ccccc4o2)n2c-3cc3cc(-c4cnc([C@@H]5CCCN5C(=O)[C@@H](NC(=O)OC)C(C)C)[nH]4)ccc32)[nH]1)C(C)C (some centres undefined)
Reply text: 2.51

Inquiry: Look at this compound and give its reported log10 EC90. COC(=O)N[C@H](C(=O)N1CCC[C@H]1c1ncc(-c2cc(F)c3c(c2)O[C@@H](c2ccc4c(c2)OCCC4)n2c-3cc3cc(-c4cnc([C@@H]5CCCN5C(=O)[C@@H](NC(=O)OC)C(C)C)[nH]4)ccc32)[nH]1)C(C)C
Reply text: 2.70

Inquiry: Any idea what its log10 EC90 is? The compound is COC(=O)N[C@H](C(=O)N1CCC[C@H]1c1ncc(-c2ccc3c(c2)OC(c2ccc(C4CC4)s2)n2c-3cc3cc(-c4cnc([C@@H]5CCCN5C(=O)[C@@H](NC(=O)OC)C(C)C)[nH]4)ccc32)[nH]1)C(C)C (some centres undefined)
Reply text: 3.08

Inquiry: Quick one: log10 EC90 of COC(=O)N[C@H](C(=O)N1CCC[C@H]1c1ncc(-c2cc(F)c3c(c2)OC(c2ccc(C(=O)N(C)C)s2)n2c-3cc3cc(-c4cnc([C@@H]5CCCN5C(=O)[C@@H](NC(=O)OC)C(C)C)[nH]4)ccc32)[nH]1)C(C)C (some centres undefined) ?
Reply text: 2.67

Inquiry: What value of log10 EC90 has been recorded for this entry: CCCc1ccc(C2Oc3cc(-c4cnc([C@@H]5CCCN5C(=O)[C@@H](NC(=O)OC)C(C)C)[nH]4)cc(F)c3-c3cc4cc(-c5cnc([C@@H]6CCCN6C(=O)[C@@H](NC(=O)OC)C(C)C)[nH]5)ccc4n32)s1 (some centres undefined)
Reply text: 1.84

Inquiry: Dear colleague, I am looking for the recorded log10 EC90 of the following compound: COC(=O)N[C@H](C(=O)N1CCC[C@H]1c1ncc(-c2cc(F)c3c(c2)OC(c2cnc(C4CC4)s2)n2c-3cc3cc(-c4cnc([C@@H]5C[C@H]6C[C@H]6N5C(=O)[C@@H](NC(=O)OC)C(C)C)[nH]4)ccc32)[nH]1)C(C)C (some centres undefined)
Reply text: 1.32

Inquiry: So what does the record say about log10 EC90 for COC(=O)N[C@H](C(=O)N1CCC[C@H]1c1ncc(-c2cc(F)c3c(c2)OC(c2ncc(C4CC4)s2)n2c-3cc3cc(-c4cnc([C@@H]5CCCN5C(=O)[C@@H](NC(=O)OC)C(C)C)[nH]4)ccc32)[nH]1)C(C)C (some centres undefined) ?
Reply text: 3.00

Inquiry: What value of measured log10 EC90 is listed for COC(=O)N[C@H](C(=O)N1CCC[C@H]1c1ncc(-c2cc(F)c3c(c2)OC(c2cc(C)c(C4CC4)s2)n2c-3cc3cc(-c4cnc([C@@H]5CCCN5C(=O)[C@@H](NC(=O)OC)C(C)C)[nH]4)ccc32)[nH]1)C(C)C (some centres undefined) ?
Reply text: 3.23

Inquiry: Consider the compound CCc1ncc(C2Oc3cc(-c4cnc([C@@H]5CCCN5C(=O)[C@@H](NC(=O)OC)C(C)C)[nH]4)cc(F)c3-c3cc4cc(-c5cnc([C@@H]6CCCN6C(=O)[C@@H](NC(=O)OC)C(C)C)[nH]5)ccc4n32)s1 (some centres undefined) and give its measured log10 EC90.
Reply text: 2.15

Inquiry: Record request: log10 EC90 value, item COC(=O)N[C@H](C(=O)N1CCC[C@H]1c1ncc(-c2cc(F)c3c(c2)OC(c2ccc(C#N)s2)n2c-3cc3cc(-c4cnc([C@@H]5CCCN5C(=O)[C@@H](NC(=O)OC)C(C)C)[nH]4)ccc32)[nH]1)C(C)C (some centres undefined)
Reply text: 3.38

Inquiry: Give the measured log10 EC90 of COC(=O)N[C@H](C(=O)N1CCC[C@H]1c1ncc(-c2cc(F)c3c(c2)OC(c2sc(C4CC4)cc2F)n2c-3cc3cc(-c4cnc([C@@H]5CCCN5C(=O)[C@@H](NC(=O)OC)C(C)C)[nH]4)ccc32)[nH]1)C(C)C (some centres undefined) .
Reply text: 2.87

Inquiry: Any idea what its log10 EC90 is? The compound is COC(=O)N[C@H](C(=O)N1CCC[C@H]1c1ncc(-c2cc(F)c3c(c2)OC(c2cncs2)n2c-3cc3cc(-c4cnc([C@@H]5CCCN5C(=O)[C@@H](NC(=O)OC)C(C)C)[nH]4)ccc32)[nH]1)C(C)C (some centres undefined)
Reply text: 3.00

Inquiry: GET /values?readout=log10 EC90&item= COC(=O)N[C@H](C(=O)N1CCC[C@H]1c1ncc(-c2cc(F)c3c(c2)OC(c2cnc(CC(F)(F)F)s2)n2c-3cc3cc(-c4cnc([C@@H]5CCCN5C(=O)[C@@H](NC(=O)OC)C(C)C)[nH]4)ccc32)[nH]1)C(C)C (some centres undefined)
Reply text: 2.26
